Assay: Single dose pharmacokinetics of oral nanatinostat in patients
Assay type: in vivo, humans
Settings: human, serum, 10 mg, B = 10 mg VRx-3996 p.o. and 450 mg Valganciclovir p.o., single dose, read-out: Cmax (ng/mL), geometric mean
quantity-measured: Cmax (ng/mL)
Report only the number, with the unit ng/mL understood.

Qu. # Cmax lookup, item O=C(NO)c1cnc(N2C[C@@H]3[C@H](C2)[C@H]3NCc2ccc3cc(F)ccc3n2)nc1 [Nanatinostat]
Ans. 62.6

* * *

Test: Single dose pharmacokinetics of oral nanatinostat in patients
Type: in vivo, humans
Settings: human, serum, 5 mg, A = 5 mg VRx-3996 p.o. and 450 mg Valganciclovir p.o., single dose, read-out: AUC (ng-h/mL), geometric mean
quantity-measured: AUC (ng·h/mL)
Report only the number, with the unit ng·h/mL understood.

Qu. # AUC lookup, item O=C(NO)c1cnc(N2C[C@@H]3[C@H](C2)[C@H]3NCc2ccc3cc(F)ccc3n2)nc1
Ans. 117

Taken from patent US10953011B2.
